Tested on: kinases of Table 6 on Myelin Basic Protein (MBP)
EXPERIMENTAL_DETAILS: Kinase assay using MBP substrate, ProQ Diamond stain (Table 6)
Format: biochemical
MEASUREMENT_SETUP: kinase printed on MBP-coated slide; 20 uM ATP, 30° C.; ProQ Diamond Microarray Stain; graded Strong/Weak/Negative

- MOLECULE: "MINK1 (protein, left off: a dimerising Fc or GST) MGDPAPARSLDDIDLSALRDPAGIFELVEVVGNGTYGQVYKGRHVKTGQLAAIKVMDVTEDEEEEIKQEINMLKKYSHHRNIATYYGAFIKKSPPGNDDQLWLVMEFCGAGSVTDLVKNTKGNALKEDCIAYICREILRGLAHLHAHKVIHRDIKGQNVLLTENAEVKLVDFGVSAQLDRTVGRRNTFIGTPYWMAPEVIACDENPDATYDYRSDIWSLGITAIEMAEGAPPLCDMHPMRALFLIPRNPPPRLKSKKWSKKFIDFIDTCLIKTYLSRPPTEQLLKFPFIRDQPTERQVRIQLKDHIDRSRKKRGEKEETE"
  MBP Kinase Activity: "Weak"
